Collected literature values of pKi measured for Carbonic anhydrase 4 (Bos taurus, UniProt Q95323).
Keep it numeric: pKi is minus log10 of the concentration in mol/L.

Note to self: pKi recorded for "CNCC(=O)/N=c1\sc(S(N)(=O)=O)nn1C" was 7.37

Note to self: pKi recorded for "CCc1cc(-c2ccccc2)cc(CC)[n+]1CC(=O)OCc1ccc(S(N)(=O)=O)cc1" was 7.01

Note to self: pKi recorded for "CNCC(=O)NS(=O)(=O)c1ccc(CCO)cc1" was 6.95

Note to self: pKi recorded for "NS(=O)(=O)c1ccc(CCNS(=O)(=O)c2ccc(NC(=O)c3c(F)c(F)cc(F)c3F)cc2)cc1" was 7.31

Note to self: pKi recorded for "NS(=O)(=O)c1cccc(NS(=O)(=O)c2ccc(NS(=O)(=O)C(F)(F)F)cc2)c1" was 7.35

Note to self: pKi recorded for "NS(=O)(=O)c1cccc(N2C(=O)c3cccnc3C2=O)c1" was 6.52

Note to self: pKi recorded for "CC(C)c1cc(-c2ccccc2)cc(C(C)C)[n+]1CC(=O)Nc1cc(C(F)(F)F)c(S(N)(=O)=O)cc1S(N)(=O)=O" was 7.38

Note to self: pKi recorded for "CN(CC(=O)Nc1cccc(S(N)(=O)=O)c1)C(=N)N" was 6.75

Note to self: pKi recorded for "O=C(CN(Cc1ccc([N+](=O)[O-])cc1)S(=O)(=O)c1c(F)c(F)c(F)c(F)c1F)NO" was 6.89

Note to self: pKi recorded for "CN(CC(=O)/N=c1/sc(S(N)(=O)=O)nn1C)C(=N)N" was 7.39

Note to self: pKi recorded for "NS(=O)(=O)c1ccccc1NC(=O)CN(CCOCCOCCN(CC(=O)O)CC(=O)O)CC(=O)O" was 6.26

Note to self: pKi recorded for "NS(=O)(=O)c1ccc(NNC(=O)c2c(F)c(F)c(F)c(F)c2F)cc1" was 6.01

Note to self: pKi recorded for "NS(=O)(=O)c1ccc(NNS(=O)(=O)c2c(F)c(F)c(F)c(F)c2F)cc1" was 6.30

Note to self: pKi recorded for "Nc1c(Br)cc(S(=O)(=O)Nc2nnc(S(N)(=O)=O)s2)cc1I" was 8.64

Note to self: pKi recorded for "Cc1ccc(S(=O)(=O)NC(=O)Nc2c(S(N)(=O)=O)cc(S(N)(=O)=O)c(Cl)c2Cl)cc1" was 7.85

Note to self: pKi recorded for "NS(=O)(=O)c1ccc(NS(=O)(=O)C(F)(F)F)c(I)c1" was 4.31

Note to self: pKi recorded for "C[C@H](CCC(=O)OCCc1ccc(S(N)(=O)=O)cc1)[C@H]1CC[C@H]2[C@@H]3CC[C@@H]4C[C@H](O)CC[C@]4(C)[C@H]3C[C@H](O)[C@]12C" was 6.52

Note to self: pKi recorded for "CCc1cc(-c2ccccc2)cc(CC)[n+]1CC(=O)Nc1ccc(S(N)(=O)=O)cc1Br" was 7.26

Note to self: pKi recorded for "NS(=O)(=O)c1cccc(NC(=O)CN(CCN(CC(=O)O)c2ccccc2O)c2ccccc2O)c1" was 6.07

Note to self: pKi recorded for "NS(=O)(=O)c1ccc(CNC(=O)CN(CCOCCOCCN(CC(=O)O)CC(=O)NCc2ccc(S(N)(=O)=O)cc2)CC(=O)O)cc1" was 7.80
